The measurements presented in this section are drawn from PubChem BioAssay AID1960.

Answer each item with its documented EC50.
Target: Zinc finger protein mex-5 (Caenorhabditis elegans) (UniProt Q9XUB2)
Sequence (Q9XUB2 whole entry, looked up): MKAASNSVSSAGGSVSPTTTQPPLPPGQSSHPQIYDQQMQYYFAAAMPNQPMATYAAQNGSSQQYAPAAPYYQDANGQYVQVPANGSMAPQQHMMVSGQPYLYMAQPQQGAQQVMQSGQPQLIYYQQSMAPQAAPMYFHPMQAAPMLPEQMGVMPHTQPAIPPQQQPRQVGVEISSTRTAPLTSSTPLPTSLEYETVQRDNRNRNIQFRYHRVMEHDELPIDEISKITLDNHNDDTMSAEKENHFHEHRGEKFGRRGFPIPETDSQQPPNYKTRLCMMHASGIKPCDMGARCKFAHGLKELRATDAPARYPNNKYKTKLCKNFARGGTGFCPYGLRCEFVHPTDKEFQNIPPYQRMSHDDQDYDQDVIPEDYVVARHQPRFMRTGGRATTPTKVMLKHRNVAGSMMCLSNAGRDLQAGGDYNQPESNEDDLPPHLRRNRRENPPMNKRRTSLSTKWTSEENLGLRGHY
Test: potency of MEX-5 RNA-binding blockers – biochemical, fluorescence polarization, dose response (AID 1960)
Details: MEX-5/FITC-TCR2 RNA fluorescence polarization, 1 h
Inconclusive results are not listed. The source made the active and inactive calls. The rule behind the calls is not given here.

Query :: Using the record for CCC(C)/C=C(C)/C=C/C1=CC2=C(Cl)C(=O)C(C)(OC(C)=O)C(=O)C2=CO1 (centres undefined) , report its EC50.
Result :: > 30 µM (inactive)

Query :: Give the measured EC50 of CC[C@H](C)/C=C(C)/C=C/C1=CC2=C(Cl)C(=O)[C@@](C)(OC(C)=O)C(=O)C2=CO1 .
Result :: 17.8 µM

Query :: Please report the recorded EC50 for CCN(CC)c1ccc(N=Cc2c(O)n(Cc3ccccc3)c(=O)[nH]c2=O)cc1 .
Result :: > 30 µM (inactive)

Query :: Fill blank: measured EC50 of the molecule Cc1cc(/C=C2/C(=O)NC(=O)N(Cc3ccco3)C2=O)c(C)n1-c1ccc(C(=O)O)cc1 is ____.
Result :: > 30 µM (inactive)
